# Tested On: HLA-B*15:01 (human)
# Protocol Details: radioligand competition, purified MHC
Readout Kind: IC50

| Binder | Readout Kind | Observed Measurement |
| --- | --- | --- |
| APRITFGGP (modifications not checked) [… (SEQ ID NO: 42)] | IC50 | > 70 µM |
| ELPDEFVVV (modifications not checked) [… (SEQ ID NO: 12)] | IC50 | > 70 µM |
| IRQEEVQEL (modifications not checked) [… (SEQ ID NO: 31)] | IC50 | > 70 µM |
